Data credit: PubChem BioAssay (EPA / NIEHS)

- method description: APR_HepG2_CellCycleArrest_72hr: Apredica 72-hour HepG2 Assay for Cell Cycle Arrest (AID 2282914)
- protocol conditions: high-content imaging, actives raise or lower the signal
Activity calls are given as the source filed them. Rule for the calls: active = hit-call score of the fitted dose curve at least 0.9, where 1 is the maximum; inactive = score below 0.9.
Give your call using only these classes: Yes for active, No for inactive

{"columns": ["compound", "class"],
 "data": [
  ["CC(C)(O)C(=O)Nc1ccc([N+](=O)[O-])c(C(F)(F)F)c1", "No"],
  ["Clc1ccc(Cl)cc1", "No"],
  ["O=NN(c1ccccc1)c1ccccc1", "No"],
  ["CCSC(=O)N(CC)C1CCCCC1", "No"],
  ["Oc1ccc(Cl)cc1Cl", "No"]
]}

// param item: c1cc2ccc3cccc4ccc(c1)c2c34 ; yields the recorded call
No

# fetch the recorded call for C1CC2OC2CC1C1CO1 (stereo not drawn) here
No

Please share the test call associated with Oc1c(Cl)c(Cl)c(Cl)c(Cl)c1Cl .
Yes
